experimental.target: bovine serum albumin BSA (Bos taurus, UniProt P02769)
Construct: purchased Sigma Aldrich
Sequence (P02769 25-607): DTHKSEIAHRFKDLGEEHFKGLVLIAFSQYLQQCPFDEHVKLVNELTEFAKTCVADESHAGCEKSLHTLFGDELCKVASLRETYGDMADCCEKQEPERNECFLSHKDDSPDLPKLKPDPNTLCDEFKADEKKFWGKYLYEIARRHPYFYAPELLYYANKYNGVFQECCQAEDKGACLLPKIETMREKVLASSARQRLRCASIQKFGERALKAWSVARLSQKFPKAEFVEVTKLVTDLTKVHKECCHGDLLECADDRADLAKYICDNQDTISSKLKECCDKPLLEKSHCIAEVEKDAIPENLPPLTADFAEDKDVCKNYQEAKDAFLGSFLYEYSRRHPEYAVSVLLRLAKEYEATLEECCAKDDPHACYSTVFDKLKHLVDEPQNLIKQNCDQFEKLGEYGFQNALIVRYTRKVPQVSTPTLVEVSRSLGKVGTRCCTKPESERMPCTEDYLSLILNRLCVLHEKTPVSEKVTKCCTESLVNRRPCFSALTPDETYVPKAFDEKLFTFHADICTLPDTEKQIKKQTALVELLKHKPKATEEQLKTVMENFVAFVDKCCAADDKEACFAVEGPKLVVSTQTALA
experiment.summary: RP TLC on silanized RP-2 plates impregnated with bovine serum albumin
Assay type: in vitro ADME
condition: Rf value from RP plate impregnated with 2 mg/mL BSA solution; mobile phase pH 7.4
property.measured: RP
Lab note: jot down the number only; don't add units.

>  <compound>
NC(=O)N1c2ccccc2CC(=O)c2ccccc21 [oxcarbamazepine]

>  <readout.value>
0.91

$$$$
>  <compound>
CC(=O)Nc1nnc(S(N)(=O)=O)s1

>  <readout.value>
0.96

$$$$

Please find the next compound below.
Entry O=C(c1ccccc1)c1ccc2n1CCC2C(=O)O (stereo not drawn) : reported RP = ?
0.96
